Target: human cannabinoid receptor 1 (huCB1), full length, expressed on cells (human, UniProt P21554 1-472)
Sequence (P21554 whole entry): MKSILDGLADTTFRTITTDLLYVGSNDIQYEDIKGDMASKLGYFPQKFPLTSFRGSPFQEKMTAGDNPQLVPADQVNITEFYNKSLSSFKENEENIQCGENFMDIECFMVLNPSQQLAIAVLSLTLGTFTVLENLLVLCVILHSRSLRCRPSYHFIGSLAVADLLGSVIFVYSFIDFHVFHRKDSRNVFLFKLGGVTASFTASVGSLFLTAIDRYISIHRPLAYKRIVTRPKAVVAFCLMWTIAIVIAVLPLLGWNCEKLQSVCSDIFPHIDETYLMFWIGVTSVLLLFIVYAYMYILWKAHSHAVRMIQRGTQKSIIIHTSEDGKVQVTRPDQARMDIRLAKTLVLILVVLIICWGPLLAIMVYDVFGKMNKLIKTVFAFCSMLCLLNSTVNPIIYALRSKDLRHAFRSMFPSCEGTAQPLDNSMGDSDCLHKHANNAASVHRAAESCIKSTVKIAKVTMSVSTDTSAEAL
Test: cell-based or functional assay

binder	n = 2 IC50 (nM), cAMP antagonist assay
LIBC527906-1 (antibody, V domains shown) VH: QVQLQESGPGLVKPSQTLSLTCTVSGGSIRRGGDYWGWIRQHPGKGLEWIGHIYQTGSTNYNPNFKDRATISVDTYKNQFSLKLSSVTAADTAVYYCARDYDILTGYSYYYYGMDVWGQGTTVTVSS VL: DIQLTQSPSTLSASVGDRVTITCRASQSISNYLNWYQQKPGKAPKLLIYAASSLHSGVPSRFSGSGSGTDFTLTISSLQPEDFASYYCQQYQSYPLTFGQGTKVEIKR	2.64
LIBC527984-1 (antibody, V domains shown) VH: QVQLQESGPGLVKPSQTLSLTCTVSGGSIRRGGDYWSWIRQHPGKGLEWIGHIYQTGKTNYNPNFKSRATISVNTYKNQFSLKLSSVTAADTAVYYCARDYDILTGYSYYYYGMDVWGQGTTVTVSS VL: DIQMTQSPSTLSASVGDRVTITCRASQSISNYLNWYQQKPGKAPKLLIYAASSLHSGVPSRFSGSGSGTDFTLTISSLQPEDFASYYCQQYQSYPLTFGQGTKVEIKR	1.27
LIBC523661-1 (antibody, V domains shown, Expressed as IgG1 SEFL2 mAb) VH: QVQLQESGPGLVKPSQTLSLTCTVSGGSIRRGGDYWSWIRQHPGKGLEWIGHIYYEGSTKYNPSFKGRATISVNTYKNQFSLKLSSVTAADTAVYYCARDYDPVTGHSYYYYGMDVWGQGTTVTVSS VL: DIVMTQSPLSLPVTPGEPASISCRSSQSLLTSSGYNYVDWYLQKPGQSPQLLIYQGSNRASGVPDRFSGSGSGTDFTLKISRVEAEDVGVYYCRQARAIPRTFGQGTKVEIKR	1.35
LIBC523857-1 (antibody, V domains shown) VH: QVQLQESGPGLVKPSQTLSLTCTVSGGSIRRGGDYWSWIRQHPGKGLEWIGHIYQTGQTAYNPRLEGRATISVNTYKNQFSLKLSSVTAADTAVYYCARDYDILTGYSYYYYGMDVWGQGTTVTVSS VL: DIVMTQSPLSLPVTPGEPASISCRSSQSLLSSTGANYLDWYLQKPGQSPQLLIYLGSNRASGVPDRFSGSGSGTDFTLKISRVEAEDVGVYYCRQAVELPRTFGQGTKVEIKR	2.48
LIBC527827-1 (antibody, V domains shown) VH: QVQLQESGPGLVKPSQTLSLTCTVSGGSIRRGGDYWGWIRQHPGKGLEWIGHVYQSGQTAYNPKFENRATISVKTYKNQFSLKLSSVTAADTAVYYCARNYDTLTGHSYYYYGMDVWGQGTTVTVSS VL: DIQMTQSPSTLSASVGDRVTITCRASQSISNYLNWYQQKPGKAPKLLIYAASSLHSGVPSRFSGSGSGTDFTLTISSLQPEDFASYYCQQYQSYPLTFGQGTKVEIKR	15.3
